src = PubChem BioAssay (NCI)

# Tested on: SNB-19 CNS
# experimentNotes: NCI tumour cell line growth inhibition, 48 h
measurementKind: GI50

Solved cases (5 shown):
Cc1cnc(NC(=O)C(Cc2ccccc2)NC(=O)c2ccccc2)s1 (centres undefined); 19 µM
CCOc1ccccc1-n1c(CN2CCN(C(=O)COc3ccc(CNCCCCCCN4C5CCCC4CC(OC(=O)Nc4cc(C)ccc4OC)C5)cc3)CC2)nc2ccccc2c1=O (centres undefined); 1.76 µM
O=C(CCl)N1c2ccccc2Oc2ccc3ccccc3c21; 1.86 µM
O=C1c2cccnc2-c2nc(-c3ccccc3[N+](=O)[O-])cc3c2c1nc1ccccc13; 24.2 µM
CN(C)c1ccc(-c2cc(-c3ccc(Nc4nc(Nc5ccc(Cl)cc5)nc(Nc5ccc(Cl)cc5)n4)cc3)no2)cc1; 18.7 µM

Measured on SNB-19 CNS, `Nc1cc2nc3ccccc3sc-2cc1=O` has a documented GI50 of 6.13 µM

// returns GI50 for `CCOC(=O)Nc1nc2ccc(OCC)cc2s1` with SNB-19 CNS; value = > 100 µM

Reading of GI50 for `COc1c2ccoc2c(/C=C/C=O)c2oc(-c3ccccc3)cc(=O)c12` with SNB-19 CNS: 12 µM

SNB-19 CNS data for C=C(CNCCO)[C@@H]1CC[C@]2(CO)CC[C@]3(C)[C@H](CC[C@@H]4[C@@]5(C)CCC(N)C(C)(C)[C@@H]5CC[C@]43C)[C@@H]12 (some centres undefined) ; its GI50: 2.27 µM
